Source: the supplement of paper PMC7411054

Give lowest phenotypically active concentration for every item shown.
# Test system: WPMY1-TP53BP1-CLTA
# protocol.description: lowest phenotypically active concentration; higher = less potent
# setup.conditions: treatment time: 24 h
Where a name gives a salt, the structure may show the parent alone.

Example compounds with recorded lowest phenotypically active concentration:
compound: Cc1cc(Nc2cc(C)c(C#N)c(NC(C)CCCC(C)(C)O)n2)n[nH]1 (stereo not given) [TC-A 2317 hydrochloride]
measured.target: WPMY1-TP53BP1-CLTA
result: ≤ 0.3 µM
//
compound: C[C@@H](Oc1cc(-n2cnc3ccc(CN4CCN(C)CC4)cc32)sc1C(N)=O)c1ccccc1C(F)(F)F
measured.target: WPMY1-TP53BP1-CLTA
result: ≤ 0.3 µM
//
compound: CC[C@H](C)[C@H](NC(=O)OCc1ccccc1)C(=O)N[C@@H](CCC(=O)OC(C)(C)C)C(=O)N[C@@H](C)C(=O)N[C@H](C=O)CC(C)C
measured.target: WPMY1-TP53BP1-CLTA
result: ≤ 0.3 µM
//
compound: C[C@H]1COCCN1c1cc(C2(S(=O)(=O)C3CC3)CC2)nc(-c2ccc(NC(=S)NCCO)cc2)n1
measured.target: WPMY1-TP53BP1-CLTA
result: ≤ 0.3 µM
//
compound: O=c1c(O)c(-c2ccc(O)cc2)oc2cc(O)cc(O)c12
measured.target: WPMY1-TP53BP1-CLTA
result: 9 µM

# return lowest phenotypically active concentration for each item in the list
1. Nc1ncnc2c1nc(Cl)n2C1O[C@H](CO)[C@@H](O)[C@H]1O (stereo not given in full)
2. CC1=C(/C=C/C(C)=C\C=C\C(C)=C\C(=O)O)C(C)(C)CCC1

["3 µM", "1 µM"]

Please report lowest phenotypically active concentration for every entry that follows.
1. COc1cc(C)c(Sc2cnc(NC(=O)c3ccc(CNC(C)C(C)(C)C)cc3)s2)cc1C(=O)N1CCN(C(C)=O)CC1 (stereo not given)
2. C[C@H]1[C@H]2CC[C@H]3[C@@H]4CC=C5C[C@@H](N(C)C)CC[C@]5(C)[C@H]4CC[C@]23CN1C
3. Cc1ccc(/C(=C/CN2CCCC2)c2cccc(/C=C/C(=O)O)n2)cc1
4. CNC1CCC2(C)C(=CCC3C2CCC24CN(C)C(C)C2CCC34)C1 (stereo not given)
5. O=C1NC(=O)[C@@H](c2cn3c4c(cccc24)CCC3)[C@@H]1c1c[nH]c2ccccc12 [tivantinib]
6. Oc1cccc(-c2nc(N3CCOCC3)c3oc4ncccc4c3n2)c1 [PI 103 hydrochloride]
7. Fc1ccccc1CNCc1ccc(-c2ccnc3[nH]ccc23)cc1 [OXA 06 dihydrochloride]
8. O=C(Nc1cccc(Cl)c1)Nc1ncc(CCNc2ncnc3ccsc23)s1 [SNS 314 mesylate]

["3 µM", "3 µM", "9 µM", "3 µM", "1 µM", "≤ 0.3 µM", "9 µM", "≤ 0.3 µM"]

Give me lowest phenotypically active concentration for each of these compounds, listed below.
1. COc1cc(N2CCC(N)CC2)ccc1Nc1ncc(Cl)c(-c2c[nH]c3ccccc23)n1
2. Cn1cnc2c(F)c(Nc3ccc(Br)cc3Cl)c(C(=O)NOCCO)cc21
3. Nc1nc(Cl)nc2c1ncn2[C@@H]1O[C@H](CO)[C@@H](O)[C@@H]1F
4. CNCCCC12CCC(c3ccccc31)c1ccccc12
5. O=c1cc(N2CCOCC2)oc2c(-c3ccccc3)cccc12
6. CNc1nc(-c2ccc3c(N)n[nH]c3c2)cc(N2C[C@@H](C(=O)NC3CCCCC3)CC[C@H]2C)n1

≤ 0.3 µM
3 µM
≤ 0.3 µM
9 µM
9 µM
≤ 0.3 µM

Provide the reported lowest phenotypically active concentration of each entry below, same order.
1. Nc1nccc2c1ncn2[C@@H]1C=C(CO)[C@@H](O)[C@H]1O [3-Deazaneplanocin A hydrochloride]
2. CC(CN1c2ccccc2Sc2ccccc21)N(C)C (stereo not given)

1. 3 µM
2. 9 µM

For each of the compounds below, state lowest phenotypically active concentration.
1. Cc1ccc([N+](=O)[O-])cc1S(=O)(=O)N(C)/N=C/c1cnc2ccc(Br)cn12
2. COc1ccc(S(=O)(=O)Nc2cccnc2Nc2ccc(O)cc2)cc1

["≤ 0.3 µM", "≤ 0.3 µM"]

Could you report lowest phenotypically active concentration for every entry in the following list?
1. O[C@H](CNC[C@H](O)[C@@H]1CCc2cc(F)ccc2O1)[C@@H]1CCc2cc(F)ccc2O1
2. COc1ccc2c3c(c(=O)n(C)c2c1OC)C=CC(C)(C)O3

1: 9 µM; 2: 9 µM

Please look at the items below and tell me lowest phenotypically active concentration for each one, in order.
1. CS(=O)(=O)c1cccc(CNc2nc(Nc3ccc4c(c3)CCC(=O)N4)ncc2C(F)(F)F)c1
2. O=C(/C=C/c1ccc(O)cc1)c1ccc(O)cc1O
3. NC(=O)Nc1sc(-c2ccc(F)cc2)cc1C(N)=O
4. O=C1Nc2ccc(F)cc2C1=C1Nc2ccccc2C1=NO
5. O=C(NC(NC(=S)Nc1ccc(F)c([N+](=O)[O-])c1)C(Cl)(Cl)Cl)C(c1ccccc1)c1ccccc1 (stereo not given)
6. CC(=O)NC1=NN(C(C)=O)C(C)(c2ccccc2)S1 (stereo not given)
7. CC1(C)CC(=O)C2=C(C1)NC(=S)NC2c1cccc(O)c1 (stereo not given)

1 µM
9 µM
9 µM
≤ 0.3 µM
9 µM
3 µM
1 µM

Which value of lowest phenotypically active concentration has been reported for COC(=O)Nc1nc2ccc(C(=O)c3cccs3)cc2[nH]1 in the records?
≤ 0.3 µM
